Source listed as patent US12594267B2.

Test: PK after subcutaneous administration of solutions in rats
Assay type: in vivo, Wistar Han rat
Settings: male, Wistar Han, rat, plasma, sc, 50 mg/kg, rat mean, n=3; 96 h; SC 50 mg/kg, 300 mg/mL in 15% water/85% PEG 300

COMPOUND: CC(C)(C#Cc1ccc(-c2ccc(Cl)c3c(NS(C)(=O)=O)nn(CC(F)(F)F)c23)c([C@H](Cc2cc(F)cc(F)c2)NC(=O)Cn2nc(C(F)(F)F)c3c2C(F)(F)[C@@H]2C[C@H]32)n1)S(C)(=O)=O [Formula (Ia)]
concentration at 96 h: 75.8 nM

----------
Test: PK after subcutaneous administration of solutions in rats
Type: in vivo, Wistar Han rat
Settings: male, Wistar Han, rat, plasma, sc, 50 mg/kg, rat #2; 1344 h; SC 50 mg/kg, 300 mg/mL in 15% water/85% PEG 300

SMILES_TEXT: CC(C)(C#Cc1ccc(-c2ccc(Cl)c3c(NS(C)(=O)=O)nn(CC(F)(F)F)c23)c([C@H](Cc2cc(F)cc(F)c2)NC(=O)Cn2nc(C(F)(F)F)c3c2C(F)(F)[C@@H]2C[C@H]32)n1)S(C)(=O)=O
concentration at 1344 h: 229 nM

----------
Assay: PK after subcutaneous administration of solutions in dogs
Assay type: in vivo, Beagle dog
Conditions: Beagle, dog, plasma, sc, 6 mg/kg, dog; SC 6 mg/kg; 100 mg/mL solution (w/w %: 28.36 water, 60.73 PEG 300, 9.23 sodium salt of Formula (Ia), 1.68 poloxamer 188); mean ± SD, n=3; read-out: AUC0-24h
ENDPOINT_NAME: AUC(0-t) (µM·h)

COMPOUND: CC(C)(C#Cc1ccc(-c2ccc(Cl)c3c(NS(C)(=O)=O)nn(CC(F)(F)F)c23)c([C@H](Cc2cc(F)cc(F)c2)NC(=O)Cn2nc(C(F)(F)F)c3c2C(F)(F)[C@@H]2C[C@H]32)n1)S(C)(=O)=O [Formula (Ia)]
TEST_VALUE: 6.05

----------
Test: PK after subcutaneous administration of solutions in dogs
Format: in vivo, Beagle dog
Conditions: male, beagle, dog, plasma, sc, 12 mg/kg, dog #3; 1344 h; SC 12 mg/kg, 400 mg/mL in 15% water/85% PEG 300

SMILES_TEXT: CC(C)(C#Cc1ccc(-c2ccc(Cl)c3c(NS(C)(=O)=O)nn(CC(F)(F)F)c23)c([C@H](Cc2cc(F)cc(F)c2)NC(=O)Cn2nc(C(F)(F)F)c3c2C(F)(F)[C@@H]2C[C@H]32)n1)S(C)(=O)=O
concentration at 1344 h, nM: 30.2

----------
Experiment: PK after subcutaneous administration of solutions in dogs
Format: in vivo, Beagle dog
Conditions: male, beagle, dog, plasma, sc, 12 mg/kg, male beagle dog; single SC 12 mg/kg; 400 mg/mL in 85% PEG300 and 15% water; mean ± SD, n=3; read-out: AUC0-48h

COMPOUND: CC(C)(C#Cc1ccc(-c2ccc(Cl)c3c(NS(C)(=O)=O)nn(CC(F)(F)F)c23)c([C@H](Cc2cc(F)cc(F)c2)NC(=O)Cn2nc(C(F)(F)F)c3c2C(F)(F)[C@@H]2C[C@H]32)n1)S(C)(=O)=O [Formula (Ia)]
AUC(0-t), µM·h: 1.08

----------
Test: PK after subcutaneous administration of solutions in rats
Assay type: in vivo, Wistar Han rat
Settings: Wistar Han, rat, plasma, sc, 50 mg/kg, rat; SC 50 mg/kg; 100 mg/mL solution (w/w %: 28.36 water, 60.73 PEG 300, 9.23 sodium salt of Formula (Ia), 1.68 poloxamer 188); mean ± SD, n=3; read-out: AUC0-7d

SMILES_TEXT: CC(C)(C#Cc1ccc(-c2ccc(Cl)c3c(NS(C)(=O)=O)nn(CC(F)(F)F)c23)c([C@H](Cc2cc(F)cc(F)c2)NC(=O)Cn2nc(C(F)(F)F)c3c2C(F)(F)[C@@H]2C[C@H]32)n1)S(C)(=O)=O
QUANTITY_UNIT: µM·h
AUC(0-t): 202

----------
Assay: PK after subcutaneous administration of solutions in dogs
Assay type: in vivo, Beagle dog
Conditions: beagle, dog, plasma, sc, 12 mg/kg, dog; SC 12 mg/kg; 400 mg/mL solution in 10% ethanol, 13% water, 77% PEG 200; mean ± SD, n=3; read-out: AUC0-140d
ENDPOINT_NAME: AUC(0-t) (µM·h)

SMILES_TEXT: CC(C)(C#Cc1ccc(-c2ccc(Cl)c3c(NS(C)(=O)=O)nn(CC(F)(F)F)c23)c([C@H](Cc2cc(F)cc(F)c2)NC(=O)Cn2nc(C(F)(F)F)c3c2C(F)(F)[C@@H]2C[C@H]32)n1)S(C)(=O)=O
TEST_VALUE: 111

----------
Experiment: PK after subcutaneous administration of solutions in dogs
Format: in vivo, Beagle dog
Conditions: male, beagle, dog, plasma, sc, 12 mg/kg, dog #3; 336 h; SC 12 mg/kg, 400 mg/mL in 15% water/85% PEG 300

SMILES_TEXT: CC(C)(C#Cc1ccc(-c2ccc(Cl)c3c(NS(C)(=O)=O)nn(CC(F)(F)F)c23)c([C@H](Cc2cc(F)cc(F)c2)NC(=O)Cn2nc(C(F)(F)F)c3c2C(F)(F)[C@@H]2C[C@H]32)n1)S(C)(=O)=O
concentration at 336 h, nM: 53

----------
Assay: PK after oral administration in liquid-filled capsules in dogs
Assay type: in vivo, beagle dogs
Settings: male, beagle, dog, plasma, po, 7.5 mg, fasted, pentagastrin-pretreated male beagle dogs; oral LFC 7.5 mg fixed dose; 100% glycerol monocaprylocaprate; 100 mg/mL; mean ± SD, n=6; read-out: AUC0-72h
ENDPOINT_NAME: AUC(0-t) (µM·h)

MOLECULE: CC(C)(C#Cc1ccc(-c2ccc(Cl)c3c(NS(C)(=O)=O)nn(CC(F)(F)F)c23)c([C@H](Cc2cc(F)cc(F)c2)NC(=O)Cn2nc(C(F)(F)F)c3c2C(F)(F)[C@@H]2C[C@H]32)n1)S(C)(=O)=O [Formula (Ia)]
TEST_VALUE: 1.67

----------
Assay: PK after oral administration of spray-dried dispersion (SDD) tablets in dogs
Assay type: in vivo
Conditions: dog, plasma; beagle dogs; oral SDD tablet of the sodium salt (Table T composition, Opadry II White film coat), 300 mg fixed dose; mean ± SD, n=6

COMPOUND: CC(C)(C#Cc1ccc(-c2ccc(Cl)c3c(NS(C)(=O)=O)nn(CC(F)(F)F)c23)c([C@H](Cc2cc(F)cc(F)c2)NC(=O)Cn2nc(C(F)(F)F)c3c2C(F)(F)[C@@H]2C[C@H]32)n1)S(C)(=O)=O [Formula (Ia)]
Tmax: 5.3 h

----------
Experiment: PK after subcutaneous administration of solutions in dogs
Assay type: in vivo, Beagle dog
Details: male, beagle, dog, plasma, sc, 12 mg/kg, dog mean, n=3; 48.0 h; SC 12 mg/kg, 400 mg/mL in 15% water/85% PEG 300
ENDPOINT_NAME: concentration at 48 h (nM)

SMILES_TEXT: CC(C)(C#Cc1ccc(-c2ccc(Cl)c3c(NS(C)(=O)=O)nn(CC(F)(F)F)c23)c([C@H](Cc2cc(F)cc(F)c2)NC(=O)Cn2nc(C(F)(F)F)c3c2C(F)(F)[C@@H]2C[C@H]32)n1)S(C)(=O)=O
TEST_VALUE: 42.8

----------
Assay: PK after subcutaneous administration of solutions in rats
Assay type: in vivo, Wistar Han rat
Conditions: male, Wistar Han, rat, plasma, sc, 50 mg/kg, rat #2; 336 h; SC 50 mg/kg, 300 mg/mL in 15% water/85% PEG 300

SMILES_TEXT: CC(C)(C#Cc1ccc(-c2ccc(Cl)c3c(NS(C)(=O)=O)nn(CC(F)(F)F)c23)c([C@H](Cc2cc(F)cc(F)c2)NC(=O)Cn2nc(C(F)(F)F)c3c2C(F)(F)[C@@H]2C[C@H]32)n1)S(C)(=O)=O
QUANTITY_UNIT: nM
concentration at 336 h: 273

----------
Assay: PK after subcutaneous administration of solutions in rats
Type: in vivo, Wistar Han rat
Details: male, Wistar Han, rat, plasma, sc, 50 mg/kg, rat #1; 24 h; SC 50 mg/kg, 300 mg/mL in 15% water/85% PEG 300
ENDPOINT_NAME: concentration at 24 h (nM)

SMILES_TEXT: CC(C)(C#Cc1ccc(-c2ccc(Cl)c3c(NS(C)(=O)=O)nn(CC(F)(F)F)c23)c([C@H](Cc2cc(F)cc(F)c2)NC(=O)Cn2nc(C(F)(F)F)c3c2C(F)(F)[C@@H]2C[C@H]32)n1)S(C)(=O)=O
ENDPOINT_NAME: concentration at 24 h
TEST_VALUE: 52.6
